- TARGET UNDER TEST: PDE9 (Homo sapiens (Human))
- Sequence (O76083 whole entry): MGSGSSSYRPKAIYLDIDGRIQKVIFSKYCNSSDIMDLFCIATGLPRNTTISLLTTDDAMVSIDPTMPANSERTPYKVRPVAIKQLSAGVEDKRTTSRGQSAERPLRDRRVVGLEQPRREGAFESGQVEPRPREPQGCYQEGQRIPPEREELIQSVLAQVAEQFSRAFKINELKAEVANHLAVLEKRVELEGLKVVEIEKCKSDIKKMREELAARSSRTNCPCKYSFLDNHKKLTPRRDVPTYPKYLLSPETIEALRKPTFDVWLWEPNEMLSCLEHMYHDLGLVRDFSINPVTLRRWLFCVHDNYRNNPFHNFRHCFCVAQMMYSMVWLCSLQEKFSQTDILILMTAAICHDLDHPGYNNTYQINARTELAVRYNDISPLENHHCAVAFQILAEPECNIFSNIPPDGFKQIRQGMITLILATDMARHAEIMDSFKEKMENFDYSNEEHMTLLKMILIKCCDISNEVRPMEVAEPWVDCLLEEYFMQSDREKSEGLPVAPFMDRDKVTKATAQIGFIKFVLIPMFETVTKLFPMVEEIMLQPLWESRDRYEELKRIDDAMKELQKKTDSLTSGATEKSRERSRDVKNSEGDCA
We label by threshold. Values of IC50 strictly beneath 7 nM are true (1). Values of 7 nM and up are false (0).

The following molecules have reported results that may help.
• CCOCC1CCN(C(=O)c2cc3c(cc2C)[nH]c(=O)c2cnn([C@H]4CCOC4)c23)CC1 = true (1)
• Cc1cc2[nH]c(=O)c3cnn([C@H]4CCOC4)c3c2cc1C(=O)N1CCC(OC[C@@H](C)F)CC1 = false (0)
• CCOCCC1CCN(C(=O)c2cc3c(cc2C)[nH]c(=O)c2cnn([C@H]4CCOC4)c23)CC1 = true (1)

Quick check: IC50 of Cc1cc2[nH]c(=O)c3cnn([C@H]4CCOC4)c3c2cc1C(=O)N1CCC(OCC2CC2)CC1 under 7 nM?
true (1)

Quick check: IC50 of COCCCCN1CCN(C(=O)c2cc3c(cc2C)[nH]c(=O)c2cnn(C4CCCC4)c23)C[C@@H]1C under 7 nM?
true (1)

Quick check: IC50 of O=C(c1ccc2c(c1)[nH]c(=O)c1cnn(C3CCOCC3)c12)N1CCc2cc(Cl)ccc21 under 7 nM?
false (0)

* * *

# IC50 values compiled below
- TARGET UNDER TEST: PDE9 (Homo sapiens (Human))
Your answer should be a plain number; it is taken to be in nM.

See these solved cases before continuing.
• Cc1cc2[nH]c(=O)c3cnn(C4CCC4)c3c2cc1C(=O)N1CCN(CCC(F)(F)F)CC1 [Example 161] = 31
• COCCCCN1C[C@H](C)N(C(=O)c2cc3c(cc2C)[nH]c(=O)c2cnn(CC4CCC4)c23)C[C@H]1C [Example 189] = 6.9
• CCc1cc2[nH]c(=O)c3cnn(C4CCOCC4)c3c2cc1C(=O)N1CCN(CCCCOC)[C@H](C)C1 [Example 129] = 1.1

The compound O=C(c1ccc2c(c1)[nH]c(=O)c1cnn(C3CCCC3)c12)N1CCc2cc(Cl)ccc21 [Example 1] , tested on PDE9 (Homo sapiens (Human)), showed IC50 of 18

The compound COc1cc2[nH]c(=O)c3cnn(C4CCCC4)c3c2cc1C(=O)NCC(C)(C)N1CCOCC1 [Example 119] , tested on PDE9 (Homo sapiens (Human)), showed IC50 of 8.9

The compound Cc1cc2[nH]c(=O)c3cnn(C4CCOCC4)c3c2cc1C(=O)N1CCC(Oc2ccccn2)CC1 [Example 22] , tested on PDE9 (Homo sapiens (Human)), showed IC50 of 2.2

The compound Cc1cc2[nH]c(=O)c3cnn(CC4CCC4)c3c2cc1C(=O)N1C[C@@H](C)N(CCC(F)(F)F)C[C@@H]1C [Example 190] , tested on PDE9 (Homo sapiens (Human)), showed IC50 of 7.5

The compound CCOCC1CCN(C(=O)c2cc3c(cc2C)[nH]c(=O)c2cnn(C4CCOCC4)c23)CC1 [Example 56] , tested on PDE9 (Homo sapiens (Human)), showed IC50 of 4.4

The compound Cc1cc2[nH]c(=O)c3cnn(CC4CC4)c3c2cc1C(=O)N1CCN(CCC(F)(F)F)[C@@H](C)C1 [Example 210] , tested on PDE9 (Homo sapiens (Human)), showed IC50 of 1.3

The compound Cc1cc2[nH]c(=O)c3cnn(C4CCOCC4)c3c2cc1C(=O)N1CCC(OCC(C)(F)F)CC1 [Example 176] , tested on PDE9 (Homo sapiens (Human)), showed IC50 of 8.4

The compound Cc1cc2[nH]c(=O)c3cnn([C@H]4CCOC4)c3c2cc1C(=O)N1CCN(CCCOC(F)(F)F)CC1 [Example 219] , tested on PDE9 (Homo sapiens (Human)), showed IC50 of 15

The compound Cc1cc2[nH]c(=O)c3cnn(C4CCOCC4)c3c2cc1C(=O)N1CCC(C(F)(F)F)CC1 [Example 192] , tested on PDE9 (Homo sapiens (Human)), showed IC50 of 11

The compound CCc1cc2[nH]c(=O)c3cnn(C4CCC4)c3c2cc1C(=O)N1CCN(CCC(F)(F)F)CC1 [Example 162] , tested on PDE9 (Homo sapiens (Human)), showed IC50 of 7

The compound Cc1cc2[nH]c(=O)c3cnn(C4CCOCC4)c3c2cc1C(=O)N1CC2CN(Cc3ccccc3)CC2C1 (stereo not drawn) [Example 74] , tested on PDE9 (Homo sapiens (Human)), showed IC50 of 12

The compound Cc1cc2[nH]c(=O)c3cnn([C@H]4CCOC4)c3c2cc1C(=O)N1CCC(OC2CC2)CC1 [Example 218] , tested on PDE9 (Homo sapiens (Human)), showed IC50 of 17
